# tgt: T1, soluble human FcRn (shFcRn) (human, UniProt P55899 24-297; P61769 21-119, biotinylated with Sulfo-NHS-LC-Biotin in the ELISA; amine-coupled to a CM5 chip in SPR)
# T1 construct: also called biotinylated shFcRn
# methodSummary: SPR, pH 6
# Protocol: The following steps were performed to cross-link soluble human or cynomolgus FcRn to the dextran surface of a CM5 sensor chip (Biacore AB, Uppsala, Sweden) by an amine coupling reaction involving 1-ethyl-(3-dimethylaminopropyl)-carbodiimide hydrochloride (EDC) (Biacore AB, Uppsala, Sweden) and N-hydroxysuccinimide (NHS) (Biacore AB, Uppsala, Sweden) as recommended by Biacore (BIAapplications Handbook, version AB, section 4.2, Biacore AB, Uppsala, Sweden). […]
Positions of bridges follow the written chain, without caps; N, C: chain ends. Non-standard residues stand in square brackets, D forms with d. No end group written: not given here. Pen = CC(C)(S)[C@H](N)C(=O)O
reportedMetric: Kd (nM)

QRF[Pen]TGHFG[dR]LYPCNGP-NH2 (disulfide 4-14; N-terminus assumed; SMILES CC(C)C[C@@H]1NC(=O)[C@@H](CCCNC(=N)N)NC(=O)CNC(=O)[C@H](Cc2ccccc2)NC(=O)[C@H](Cc2c[nH]cn2)NC(=O)CNC(=O)[C@H]([C@@H](C)O)NC(=O)[C@@H](NC(=O)[C@H](Cc2ccccc2)NC(=O)[C@H](CCCNC(=N)N)NC(=O)[C@@H](N)CCC(N)=O)C(C)(C)SSC[C@@H](C(=O)N[C@@H](CC(N)=O)C(=O)NCC(=O)N2CCC[C@H]2C(N)=O)NC(=O)[C@@H]2CCCN2C(=O)[C@H](Cc2ccc(O)cc2)NC1=O) [Peptide No. 41] :: 830

1. QRFXTGHFGXWYPCNGP (Pen4; Sar10; disulfide; C-terminal amide) [Peptide No. 238]
2. RFXTGKFGXXYPC (Pen3; Sar9; NMeLeu10; disulfide; C-terminal amide) [Peptide No. 255]
3. QRFXTGHFGXXYPCNGP (Pen4; Sar10; NMeLeu11; disulfide; C-terminal amide) [Peptide No. 187]
Task field, ranking: reported Kd, descending order. Return the labels ranked in the requested order, please.
2, 1, 3
